target: YES1 (Homo sapiens (Human)); assay: YES1 kinase selectivity assay; format: biochemical; settings: 1 μM inhibitor concentration
Sequence (P07947 whole entry, species assumed): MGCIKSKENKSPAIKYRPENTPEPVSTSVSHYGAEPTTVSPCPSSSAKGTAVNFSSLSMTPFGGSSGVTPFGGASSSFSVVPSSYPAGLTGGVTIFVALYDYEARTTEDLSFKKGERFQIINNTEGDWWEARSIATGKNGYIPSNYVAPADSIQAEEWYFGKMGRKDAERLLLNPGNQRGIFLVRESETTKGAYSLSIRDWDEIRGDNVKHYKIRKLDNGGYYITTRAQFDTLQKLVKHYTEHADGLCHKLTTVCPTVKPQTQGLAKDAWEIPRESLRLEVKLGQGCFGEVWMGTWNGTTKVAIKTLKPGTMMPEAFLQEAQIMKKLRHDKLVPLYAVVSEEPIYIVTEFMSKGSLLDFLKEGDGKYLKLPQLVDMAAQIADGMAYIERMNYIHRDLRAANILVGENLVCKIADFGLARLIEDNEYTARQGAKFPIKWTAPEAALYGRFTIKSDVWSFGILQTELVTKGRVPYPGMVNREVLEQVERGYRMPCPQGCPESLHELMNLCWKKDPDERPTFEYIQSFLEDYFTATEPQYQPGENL
MEASURED_PARAMETER: percentage inhibition of YES1 (percentage)
Numeric answer only, unit percentage assumed.

Example cases with answers are listed next.
STRUCTURE	TARGET_OR_TEST_SYSTEM	VALUE_REPORTED
c1cc2[nH]nc3c2c(n1)N(C1CCC1)CCC3	YES1 (Homo sapiens (Human))	0
c1cc2[nH]nc3c2c(n1)N(C1CCCC1)CCC3	YES1 (Homo sapiens (Human))	0
c1cc2[nH]nc3c2c(n1)N(C1CCOCC1)CCC3	YES1 (Homo sapiens (Human))	0
CN1CCC(N2Cc3ccccc3-c3n[nH]c4ccnc2c34)CC1	YES1 (Homo sapiens (Human))	16

Let's switch to this molecule now.
Given the entry CC(C)n1ncc2c1CN(C1CCN(C)CC1)c1nccc3[nH]nc-2c13 , report its measured percentage inhibition of YES1.
5

====

target: SYK (Homo sapiens (Human), UniProt P43405); assay: SYK kinase selectivity assay; type: biochemical; conditions: 1 μM inhibitor concentration
MEASURED_PARAMETER: percentage inhibition of SYK

Some compounds with recorded percentage inhibition of SYK:
STRUCTURE	percentage inhibition of SYK
c1cc2[nH]nc3c2c(n1)N(C1CCOCC1)CCC3	0 percentage
CN1CCC(N2Cc3ccccc3-c3n[nH]c4ccnc2c34)CC1	0 percentage

Give the measured percentage inhibition of SYK of c1cc2[nH]nc3c2c(n1)N(C1CCCC1)CCC3 .
0 percentage

Try this compound next: CC(C)n1ncc2c1CN(C1CCN(C)CC1)c1nccc3[nH]nc-2c13
1 percentage

Further, for c1cc2[nH]nc3c2c(n1)N(C1CCC1)CCC3 ?
0 percentage

====

biological target: MST2 (Homo sapiens (Human)); test: MST2 kinase selectivity assay; format: biochemical; conditions: 1 μM inhibitor concentration
Sequence (Q13188 whole entry, species assumed): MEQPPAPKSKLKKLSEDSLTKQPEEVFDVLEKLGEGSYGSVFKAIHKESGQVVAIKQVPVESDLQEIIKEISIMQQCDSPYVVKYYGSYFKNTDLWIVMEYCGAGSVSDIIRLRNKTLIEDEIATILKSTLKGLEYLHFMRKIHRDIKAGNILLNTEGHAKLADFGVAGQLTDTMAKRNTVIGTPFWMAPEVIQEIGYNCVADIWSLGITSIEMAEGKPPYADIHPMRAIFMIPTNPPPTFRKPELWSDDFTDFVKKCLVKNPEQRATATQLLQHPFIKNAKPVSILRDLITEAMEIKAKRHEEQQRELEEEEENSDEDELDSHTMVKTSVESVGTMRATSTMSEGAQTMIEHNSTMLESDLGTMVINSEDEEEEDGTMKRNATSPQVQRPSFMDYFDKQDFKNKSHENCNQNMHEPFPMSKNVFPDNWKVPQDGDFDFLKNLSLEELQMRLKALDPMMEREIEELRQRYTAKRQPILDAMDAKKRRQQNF
The following compounds are listed with their measured percentage inhibition of MST2 values.

Some solved entries appear below for comparison.
COMPOUND	TARGET_OR_TEST_SYSTEM	percentage inhibition of MST2
CN1CCC(N2Cc3ccccc3-c3n[nH]c4ccnc2c34)CC1 [Example 55]	MST2 (Homo sapiens (Human))	28 percentage
c1cc2[nH]nc3c2c(n1)N(C1CCCC1)CCC3 [Example 23]	MST2 (Homo sapiens (Human))	0 percentage
c1cc2[nH]nc3c2c(n1)N(C1CCOCC1)CCC3 [Example 29]	MST2 (Homo sapiens (Human))	10 percentage
c1cc2[nH]nc3c2c(n1)N(C1CCC1)CCC3 [Example 22]	MST2 (Homo sapiens (Human))	20 percentage

Please look up its percentage inhibition of MST2: CC(C)n1ncc2c1CN(C1CCN(C)CC1)c1nccc3[nH]nc-2c13 [Example 68]
2 percentage

====

target: TrkA (Homo sapiens (Human), UniProt P04629); assay: TrkA kinase selectivity assay; assay type: biochemical; settings: 1 μM inhibitor concentration
Sequence (P04629 33-796, species assumed): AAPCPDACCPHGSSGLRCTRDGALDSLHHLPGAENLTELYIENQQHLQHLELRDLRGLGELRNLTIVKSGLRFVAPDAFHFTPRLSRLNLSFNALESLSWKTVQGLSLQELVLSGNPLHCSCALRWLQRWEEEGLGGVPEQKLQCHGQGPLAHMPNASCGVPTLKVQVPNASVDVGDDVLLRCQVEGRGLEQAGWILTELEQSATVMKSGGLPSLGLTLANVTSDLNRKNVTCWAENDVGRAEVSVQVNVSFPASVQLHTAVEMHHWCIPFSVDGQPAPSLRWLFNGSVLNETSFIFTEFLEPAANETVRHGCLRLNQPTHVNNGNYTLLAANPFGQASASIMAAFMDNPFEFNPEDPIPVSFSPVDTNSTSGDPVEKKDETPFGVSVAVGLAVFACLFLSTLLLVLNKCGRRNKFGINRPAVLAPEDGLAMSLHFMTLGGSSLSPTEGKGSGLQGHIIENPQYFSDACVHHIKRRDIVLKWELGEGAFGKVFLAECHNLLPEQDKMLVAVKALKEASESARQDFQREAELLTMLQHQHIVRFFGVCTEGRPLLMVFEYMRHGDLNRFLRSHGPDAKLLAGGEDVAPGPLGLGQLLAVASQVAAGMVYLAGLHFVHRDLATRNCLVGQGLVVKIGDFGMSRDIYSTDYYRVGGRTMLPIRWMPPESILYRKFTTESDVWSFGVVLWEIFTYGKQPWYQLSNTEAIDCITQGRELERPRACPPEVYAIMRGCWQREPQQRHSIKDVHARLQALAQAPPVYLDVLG
MEASURED_PARAMETER: percentage inhibition of TrkA
Please format your answer as a value with the unit trailing.

// solved cases for percentage inhibition of TrkA follow
STRUCTURE	percentage inhibition of TrkA
c1cc2[nH]nc3c2c(n1)N(C1CCOCC1)CCC3	20 percentage
c1cc2[nH]nc3c2c(n1)N(C1CCC1)CCC3	0 percentage
CC(C)n1ncc2c1CN(C1CCN(C)CC1)c1nccc3[nH]nc-2c13	9 percentage
CN1CCC(N2Cc3ccccc3-c3n[nH]c4ccnc2c34)CC1	5 percentage

Please turn your attention to the following entry.
// returns reported percentage inhibition of TrkA for input c1cc2[nH]nc3c2c(n1)N(C1CCCC1)CCC3
0 percentage
